Every entry's value here was drawn from patent EP4483954A1.

Hi there, I'd appreciate the recorded IC50 for every entry that follows.
- TARGET_OR_SYSTEM: TRB2(h) (Homo sapiens, UniProt Q92519)
- Sequence (Q92519 whole entry): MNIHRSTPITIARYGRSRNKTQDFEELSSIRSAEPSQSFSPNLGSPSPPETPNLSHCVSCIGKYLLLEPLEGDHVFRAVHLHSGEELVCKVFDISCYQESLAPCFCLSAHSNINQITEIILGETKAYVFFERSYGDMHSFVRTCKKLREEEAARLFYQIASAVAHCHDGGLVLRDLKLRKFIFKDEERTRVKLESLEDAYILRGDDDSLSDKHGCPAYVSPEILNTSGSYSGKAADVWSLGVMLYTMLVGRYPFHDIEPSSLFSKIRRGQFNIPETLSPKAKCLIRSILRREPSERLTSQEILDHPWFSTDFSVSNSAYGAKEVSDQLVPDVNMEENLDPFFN

Some compounds with known IC50 results, for comparison:
Cn1cc(-c2ccc3scc(C4=CCNCC4)c3n2)cn1 [Preparative Example 9] :: 3000 to 10000 nM
Cn1cc(-c2ccc3scc(-c4cnn(C)c4)c3n2)cn1 [Preparative Example 63] :: 500 to 3000 nM
Cn1cc(-c2ccc3scc(Nc4ccccc4)c3n2)cn1 [Preparative Example 76] :: 100 to 499 nM

# batch: return IC50 for each of the 4 compounds below
1. Cn1cc(-c2ccc3scc(-c4ccncc4)c3n2)c(NC(=O)OC(C)(C)C)n1 [Preparative Example 83]
2. Cc1nn(C)c(C)c1-c1ccc2scc(-c3ccncc3)c2n1 [Preparative Example 85]
3. Cc1cc(-c2csc3ccc(-c4cnn(C)c4)nc23)cc(C)n1 [Preparative Example 30]
4. Cn1cc(-c2ccc3scc(-c4ccc5ncnn5c4)c3n2)cn1 [Preparative Example 53]

["500 to 3000 nM", "500 to 3000 nM", "500 to 3000 nM", "20 to 99 nM"]
